# test_system: SF9 affinity purified rat farnesyl protein transferase (Rattus norvegicus, UniProt Q02293+Q04631)
# Construct: made in house; host or cells: Sf9 insect cells (baculovirus system inferred from b7)
# test_details: PFT inhibitory activity (radiolabeled farnesyl pyrophosphate, streptavidin bead assay)
# Format: biochemical
# particulars: HEPES buffer pH 7.4, without 5 mM potassium phosphate; read-out: IC50 (μM) Hepes
# Method: The protein:farnesyl transferase (PFT) or farnesyl protein transferase (FPT) inhibitory activity of compounds of the present invention were assayed in HEPES buffer (pH 7.4) containing 5 mM potassium phosphate and 20 μM ZnCl2. The solution also contained 5 mM DTT (dithiothreitol), 5 mM MgCl2, and 0.1% PEG 8000. […] After allowing the plate to settle for 30 minutes at room temperature, radioactivity was quantitated on a microBeta counter (Model 1450, Wallec). […]
property_measured: IC50 (µM)
Give bare numbers, in µM.

1) CC(C(=O)NCC(C)(C)c1ccccc1)N(Cc1ccc(Cl)cc1)C(=O)[C@H](Cc1cnc[nH]1)NC(=O)OCc1ccccc1 (stereo partly shown) [Example 55] ... 0.86
2) CC(CNC(=O)CN(Cc1cccc2ccccc12)C(=O)[C@H](Cc1c[nH]cn1)NC(=O)OCc1ccccc1)c1ccccc1 (stereo partly shown) [Example 37] ... 0.92
3) Cc1ccc(CN(CC(=O)NCC(C)(C)c2ccccc2)C(=O)[C@H](Cc2c[nH]cn2)NC(=O)OCc2ccccc2)cc1 [Example 56] ... 0.32
4) CC(CNC(=O)CN(Cc1ccc(OCc2ccccc2)cc1)C(=O)[C@H](Cc1cnc[nH]1)NC(=O)OCc1ccccc1)c1ccccc1N (stereo partly shown) [Example 21] ... 0.16
5) CC(C)(CNC(=O)CN(Cc1cccnc1)C(=O)[C@H](Cc1c[nH]cn1)NC(=O)OCc1ccccc1)c1ccccc1 [Example 39] ... 9.5

Working through the 6 molecules below one at a time, give IC50 for each.
1. COc1ccccc1CN(CC(=O)NCC(C)c1ccccc1)C(=O)[C@H](Cc1c[nH]cn1)NC(=O)OCc1ccccc1 (stereo partly shown) [Example 33]
2. CC(CNC(=O)CN(Cc1ccc(F)cc1)C(=O)[C@H](Cc1c[nH]cn1)NC(=O)OCc1ccccc1)c1ccccc1 (stereo partly shown) [Example 18]
3. Cc1ccccc1CN(CC(=O)NCC(C)c1ccccc1)C(=O)[C@H](Cc1c[nH]cn1)NC(=O)OCc1ccccc1 (stereo partly shown) [Example 43]
4. COc1ccc(CN(CC(=O)NCC(C)(C)c2ccccc2)C(=O)[C@H](Cc2c[nH]cn2)NC(=O)OCc2ccccc2)cc1 [Example 44]
5. CC(C)(CNC(=O)CN(Cc1ccc(OCc2ccccc2)cc1)C(=O)[C@H](Cc1c[nH]cn1)NC(=O)OCc1ccsc1)c1ccccc1 [Example 54]
6. O=C(CN(Cc1ccc(Cl)cc1)C(=O)[C@H](Cc1c[nH]cn1)NC(=O)OCc1ccccc1)NCCOCc1ccccc1 [Example 3]

[0.5, 2.8, 3.9, 0.3, 0.2, 3.1]

Kindly give each listed record's IC50.
1. CC(CNC(=O)CN(Cc1ccccc1)C(=O)[C@H](Cc1c[nH]cn1)NC(=O)OCc1ccccc1)c1ccccc1 (stereo partly shown) [Example 23]
2. CC(C)(CNC(=O)CN(Cc1ccccn1)C(=O)[C@H](Cc1c[nH]cn1)NC(=O)OCc1ccccc1)c1ccccc1 [Example 46]
3. O=C(CN(Cc1ccc(OCc2ccccc2)cc1)C(=O)[C@H](Cc1c[nH]cn1)NC(=O)OCc1ccccc1)NCCc1ccccc1Br [Example 9]

1. 1.6
2. 1.98
3. 4.5

Batch: IC50 for all items listed.
1. CC(C)(CNC(=O)CN(Cc1ccc(OCc2ccccn2)cc1)C(=O)[C@H](Cc1c[nH]cn1)NC(=O)OCc1ccccc1)c1ccccc1 [Example 40]
2. O=C(CN(Cc1ccc(OCc2ccccc2)cc1)C(=O)[C@H](Cc1c[nH]cn1)NC(=O)OCc1ccccc1)NCC(c1ccccc1)c1ccccn1 (stereo partly shown) [Example 12]

[0.12, 1.1]
